Tested on: Escherichia coli
Test: Microbicidal activity (suspension test, plate count)
Format: cell-based
Details: 120 ppm, 5 min contact at 22° C., ATCC 10536
PROPERTY: Microbicidal activity Escherichia coli 120 ppm/5 min (log reduction)
Hi! Could you send only the number? It should be in log reduction, unit omitted.

[[record]]
sample_smiles = "Cc1ccc(/C=C/c2ccc(/C=C/c3cccc(OCCCN(C)C)c3)cc2)c(OCCN(C)C)c1"
numeric_readout = 5

[[record]]
sample_smiles = "CN(C)CCCOc1ccccc1/C=C/c1ccc(/C=C/c2ccccc2OCCCN(C)C)cc1"
numeric_readout = 4.5

[[record]]
sample_smiles = "CCN(CC)CCOc1cccc(/C=C/c2ccc(/C=C/c3cccc(OCCN(CC)CC)c3OCCN(CC)CC)cc2)c1OCCN(CC)CC"
numeric_readout = 5


Continue with the compound presented below.
Just so you know, measured Microbicidal activity Escherichia coli 120 ppm/5 min for CN(C)CCSc1ccccc1/C=C/c1ccc(/C=C/c2ccccc2SCCN(C)C)cc1 came out at 3.3
